- system.tested: canine TRPM8 (Canis lupus familiaris, UniProt Q1A7N1)
- Sequence (Q1A7N1 1-1104): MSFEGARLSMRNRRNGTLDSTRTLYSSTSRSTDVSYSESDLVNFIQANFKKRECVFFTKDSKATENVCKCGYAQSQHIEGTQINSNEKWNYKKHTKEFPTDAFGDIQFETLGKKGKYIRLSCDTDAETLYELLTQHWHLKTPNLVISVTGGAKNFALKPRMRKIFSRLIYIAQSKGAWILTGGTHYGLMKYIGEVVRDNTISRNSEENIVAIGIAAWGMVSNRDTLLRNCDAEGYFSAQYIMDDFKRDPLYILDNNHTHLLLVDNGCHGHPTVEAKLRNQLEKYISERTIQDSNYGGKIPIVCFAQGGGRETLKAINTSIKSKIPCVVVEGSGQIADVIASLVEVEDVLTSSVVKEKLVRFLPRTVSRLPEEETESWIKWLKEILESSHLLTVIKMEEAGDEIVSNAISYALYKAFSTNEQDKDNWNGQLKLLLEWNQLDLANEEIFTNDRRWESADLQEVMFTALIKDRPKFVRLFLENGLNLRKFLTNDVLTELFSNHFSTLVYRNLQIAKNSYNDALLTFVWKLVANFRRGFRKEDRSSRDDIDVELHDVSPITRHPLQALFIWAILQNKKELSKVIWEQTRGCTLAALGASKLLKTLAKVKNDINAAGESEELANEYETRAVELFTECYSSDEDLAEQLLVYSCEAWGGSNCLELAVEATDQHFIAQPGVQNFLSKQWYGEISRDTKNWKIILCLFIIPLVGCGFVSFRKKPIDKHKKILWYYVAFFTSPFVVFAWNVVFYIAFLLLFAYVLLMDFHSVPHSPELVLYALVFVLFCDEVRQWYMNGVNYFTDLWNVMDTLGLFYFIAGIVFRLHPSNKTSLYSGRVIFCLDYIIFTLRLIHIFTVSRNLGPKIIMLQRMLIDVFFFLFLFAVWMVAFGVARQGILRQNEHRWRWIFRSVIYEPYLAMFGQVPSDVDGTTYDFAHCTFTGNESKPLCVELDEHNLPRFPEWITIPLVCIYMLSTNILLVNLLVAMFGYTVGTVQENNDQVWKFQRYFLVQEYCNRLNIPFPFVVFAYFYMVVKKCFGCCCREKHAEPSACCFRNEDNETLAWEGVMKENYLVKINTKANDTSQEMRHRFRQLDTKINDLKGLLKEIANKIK
- assay.explanation: In Vitro Canine TRPM8 Functional Assay (Ca2+ fluorescence, icilin activation)
- test.conditions: HEK293 cells stably expressing canine TRPM8; icilin activation; Ca2+ fluorescence
quantity.measured: IC50 (nM)

> print(dat)
                                   compound  quantity.measured  assay.value
1  COc1ccccc1C1CCCN1C(=O)C(Nc1ccccc1)c1ccc(C(F)(F)F)cc1 (centres unmarked)               IC50         33.3
2  O=C(C(Oc1ccccc1F)c1ccc(C(F)(F)F)cc1)N1CCCC1c1ccccc1F (centres unmarked)               IC50          110
3  O=C(O)c1cccc(C2CCCN2C(=O)C(Nc2ccccc2F)c2ccc(C(F)(F)F)cc2)c1 (mixture of isomers)               IC50           40
4  O=C(C(Nc1ccccc1F)c1ccc(C(F)(F)F)cc1)N1CCC[C@H]1c1cccc(F)c1 (mixture of isomers)               IC50           18
5  Cc1c(C(Cc2ccccc2F)C(=O)N2Cc3ccccc3C2)sc2ccccc12 (centres unmarked)               IC50           38
6  O=C(C(Nc1ccccc1)c1ccc(C(F)(F)F)cc1)N1CCCC1c1ccccc1Cl (single isomer, unassigned) [Cpd 23]               IC50         17.2
7  CC(C)(C)c1ccc(C(Nc2ccccc2)C(=O)N2CCCC2c2ccccn2)cc1 (centres unmarked)               IC50          207
8  O=C(C(Nc1ccccc1F)c1ccc2ncccc2c1)N1CCCC1c1ccccc1F (single isomer, unassigned) [Cpd 247]               IC50          8.4

###

- system.tested: canine TRPM8 (Canis lupus familiaris)
- Construct: expressed in transfected cells
- assay.explanation: In Vitro Canine TRPM8 Functional Assay (Ca2+ fluorescence, icilin activation)
- Assay type: cell-based
- test.conditions: HEK293 cells stably expressing canine TRPM8; icilin activation; Ca2+ fluorescence
Measured IC50 values are reported for all entries that follow.
quantity.measured: IC50 (µM)

> print(dat)
                                   compound  quantity.measured  units.text  assay.value
1  O=C(C(Nc1ccccc1F)c1ccc(C(F)(F)F)cc1)N1CCCC1c1ccccc1F (mixture of isomers) [Cpd 131]               IC50          µM       0.0069
2  O=C(C(Nc1ccccc1)c1ccc(C(F)(F)F)cc1)N1CCCC1c1ccco1 (stereo not shown)               IC50          µM       0.0198
3  O=C(C(Nc1c(F)cccc1F)c1ccc(Cl)cc1)N1Cc2ccccc2C1 (stereo not shown)               IC50          µM        0.132
4  O=C(C(Nc1ccccc1F)c1ccc(Cl)cc1)N1CCCC1c1ccccc1F (single isomer, unassigned) [Cpd 158]               IC50          µM        0.005
5  O=C(C(Nc1ccc(F)cc1)c1ccc(C(F)(F)F)cc1)N1CCCC1c1ccccc1Cl (stereo not shown)               IC50          µM        0.073
6  O=C(C(Nc1ccccc1F)c1ccc(C(F)(F)F)cc1)N1CCCC1c1ccccc1Cl (single isomer, unassigned) [Cpd 155]               IC50          µM        0.017
7  O=C(C(Nc1ccccc1)c1ccc(Cl)cc1)N1[C@H](CO)CC[C@@H]1c1ccccc1 (single isomer, unassigned)               IC50          µM       0.0537
